Provenance of the data: ChEMBL document CHEMBL1201862

# Test system: HCT-15
# Protocol description: NCI tumour cell line growth inhibition, 48 h
Field: GI50. Provide a value for each of the compounds that follow.
Answer format: numeric, µM implied, no suffix.

Request: GET GI50 where system = HCT-15 and item = `CCOC(=O)NC(Nc1ccc([N+](=O)[O-])cc1)(C(F)(F)F)C(F)(F)F`
Result: 70.6

Request: GET GI50 where system = HCT-15 and item = C=C1C(=O)O[C@H]2[C@H]1[C@H](OC(=O)/C(C)=C\C)C[C@]1(CO1)[C@@H]1[C@H](OC(C)=O)C=C(C)[C@]21O [EUPAROTIN ACETATE]
Result: 13.3

Request: GET GI50 where system = HCT-15 and item = `CN(C)c1ccc(Cc2cc3c(O)ccc(O)c3cc(Cc3ccc(N(C)C)cc3)c2=O)cc1`
Result: 21.5

Request: GET GI50 where system = HCT-15 and item = CCN(CC)c1ccc(C2N3CCCCC3[C@@H]3c4[nH]c5ccccc5c4CCN23)cc1 (stereo partly drawn)
Result: 34.8

Request: GET GI50 where system = HCT-15 and item = `O=C(C#Cc1ccccc1)Nc1ccccc1CC(c1c[nH]c2ccccc12)c1c[nH]c2ccccc12`
Result: 7.5

Request: GET GI50 where system = HCT-15 and item = `Cn1c2ccccc2c(=NNc2ccc(C(=O)O)cc2)c2ccccc21`
Result: 18.8

Request: GET GI50 where system = HCT-15 and item = `Cn1c2c(c3c(=O)[nH]ncc31)CCc1ccccc1-2`
Result: 24.8

Request: GET GI50 where system = HCT-15 and item = C[N+](C)(C)CC(=O)N/N=C(\C(=O)NC1=C(Cl)C(=O)c2ccccc2C1=O)C(C#N)c1nc(-c2ccc([N+](=O)[O-])cc2)cs1 (stereo not drawn)
Result: 5.36

Request: GET GI50 where system = HCT-15 and item = `CC(=O)O[C@H]1CC[C@H]2[C@@H]3CCC4=CC(=O)C=C[C@]4(O)[C@H]3CC[C@]12C`
Result: 29.6
